Values compiled from patent US20110118131A1.

Target: T1, IL-1β (UniProt P01584 117-269)
T1 construct: Antigen immobilised on the Biacore chip
Assay: Biacore, periplasmic extract
# maps each entry to its fold difference in affinity vs original
# output: bare number, implied unit fold

Previously resolved entries follow.
Binder: XPA23 light chain D28T (Fab, V domains shown) VH: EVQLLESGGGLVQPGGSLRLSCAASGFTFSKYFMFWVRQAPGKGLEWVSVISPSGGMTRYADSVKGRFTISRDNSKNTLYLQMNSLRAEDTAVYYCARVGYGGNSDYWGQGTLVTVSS VL: DIQMTQSPSSVSASVGDRLTIICRASQTINRWLAWYQQTPGNAPKLLIHSATSLQSGVPSRFSGSGSGTDFTLTINSLQPEDFATYYCQQADSFPLTFGGGTKVEIK
fold difference in affinity vs original [fold]: 1.19
//
Binder: XPA23 light chain A51P (Fab, V domains shown) VH: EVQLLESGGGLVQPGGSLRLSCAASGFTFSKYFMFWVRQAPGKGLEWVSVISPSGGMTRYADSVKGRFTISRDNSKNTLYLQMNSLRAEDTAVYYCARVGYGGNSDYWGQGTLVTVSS VL: DIQMTQSPSSVSASVGDRLTIICRASQDINRWLAWYQQTPGNAPKLLIHSPTSLQSGVPSRFSGSGSGTDFTLTINSLQPEDFATYYCQQADSFPLTFGGGTKVEIK
fold difference in affinity vs original [fold]: 0.13
//
Binder: XPA23 light chain L96F (Fab, V domains shown) VH: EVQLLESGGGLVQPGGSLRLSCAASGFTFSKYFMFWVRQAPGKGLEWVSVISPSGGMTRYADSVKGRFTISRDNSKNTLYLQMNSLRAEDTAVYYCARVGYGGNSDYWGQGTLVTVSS VL: DIQMTQSPSSVSASVGDRLTIICRASQDINRWLAWYQQTPGNAPKLLIHSATSLQSGVPSRFSGSGSGTDFTLTINSLQPEDFATYYCQQADSFPFTFGGGTKVEIK
fold difference in affinity vs original [fold]: 0.28

GET /value?item= XPA23 light chain D28N (Fab, V domains shown) VH: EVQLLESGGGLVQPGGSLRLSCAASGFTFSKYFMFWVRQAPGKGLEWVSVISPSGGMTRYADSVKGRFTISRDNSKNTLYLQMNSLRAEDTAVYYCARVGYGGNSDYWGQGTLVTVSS VL: DIQMTQSPSSVSASVGDRLTIICRASQNINRWLAWYQQTPGNAPKLLIHSATSLQSGVPSRFSGSGSGTDFTLTINSLQPEDFATYYCQQADSFPLTFGGGTKVEIK &field=fold difference in affinity vs original returns 1

GET /value?item= XPA23 light chain S50Y (Fab, V domains shown) VH: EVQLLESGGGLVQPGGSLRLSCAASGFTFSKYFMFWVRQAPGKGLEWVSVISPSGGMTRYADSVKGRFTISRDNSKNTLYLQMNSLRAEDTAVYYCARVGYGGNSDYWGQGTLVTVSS VL: DIQMTQSPSSVSASVGDRLTIICRASQDINRWLAWYQQTPGNAPKLLIHYATSLQSGVPSRFSGSGSGTDFTLTINSLQPEDFATYYCQQADSFPLTFGGGTKVEIK &field=fold difference in affinity vs original returns 0.05
